assay: qHTS for Antimalaria activity screened against the NCATS CANVASS Library (AID 1347380); also: nearly all actives have a fitted effect of over 40% in size
experimentalParameters: P. falciparum Dd2 growth, SYBR Green fluorescence, 72 h; series mostly up to 28.7 µM
Records with an inconclusive call do not appear. Activity calls are given as the source filed them. Calls follow the shape of the dose curve; as a rule, active = well fitted cell-killing curve with a large enough effect; inconclusive = small, poorly fitted or top-dose-only effect, or effect the other way; inactive = no such curve, though single readings can be large or run the other way.
A correct response names exactly one class from y (active), n (inactive)

| compound | labelValue |
| --- | --- |
| C=C(C)[C@H]1C(=O)c2c3c(cc4c5c(n1c24)[C@@]1(C)[C@@H](CC[C@H]2[C@](C)(/C=C/C=C(\C)C(=O)O)[C@@H](O)CC[C@@]21C)C5)C1=CC(C)(C)OC(C)(C)[C@H]1[C@@H]3O | y |
| C=CC(C)(C)[C@@]12C[C@H]3C(=O)N/C(=C/c4cnc[nH]4)C(=O)N3[C@@H]1Nc1ccccc12 | y |
| C[C@]12CCC3[C@@H](CC[C@@H]4C[C@@H](O)CC[C@]34CO)[C@@]1(O)CC[C@@H]2C1=CC(=O)OC1 (some centres undefined) | n |
| CO[C@@]12c3c(C)cc(O)c4c(=O)occ(c34)C(=O)[C@@H]1[C@]13COC(=O)c4c(O)cc(C)c(c41)C(=O)[C@H]2[C@@H]3OC(C)=O | y |
| C[C@]12CC(O)C3[C@@H](CC[C@@H]4C[C@@H](O)CC[C@]34CO)[C@@]1(O)CC[C@@H]2C1=CC(=O)OC1 (some centres undefined) | n |

Any idea what this test logged for "COC1=C(C2=C(OC)C(=O)c3cc4c(c(O)c3C2=O)C(=O)O[C@H](C)C4)C(=O)c2c(cc3c(c2O)C(=O)O[C@H](C)C3)C1=O" ?
n

Any idea what this test logged for "C/C=C1/CN2CC[C@]34C(=C(C(=O)OC)[C@H]1C[C@H]23)Nc1ccccc14" ?
n

Any idea what this test logged for "CCCC[C@@H](C)/C=C1/CN2CCC[C@H]2[C@@](C)(O)[C@@H]1O" ?
n

Any idea what this test logged for "C/C=C1/CN2CC[C@@]34c5ccccc5N(C)[C@@H]3[C@@H]2C[C@@H]1[C@H]4C(=O)OC" ?
n
